molecular target: human VR1 (Homo sapiens); construct: expressed in transfected cells; test: Inhibition of Ca2+ entry in cells caused by proton, in rat glioma (C6BU1) cells stably expressing human VR1 (Fura 2 fluorescence); assay type: cell-based; conditions: inhibition of proton-induced Ca2+ entry
pIC50: −log10 of the molar value.
property_label: pIC50

Summary line: Cc1cccnc1N1CCOc2c(C(=O)Nc3ccc(C(C)(C)C)cc3)cccc21 [Example 1-047] , human VR1 (Homo sapiens), reported pIC50 = > 7.00

Entry O=C(Nc1ccc(C(F)(F)F)cc1)c1cccc2c1OCCN2c1ncc(F)cc1F [Example 1-150] , human VR1 (Homo sapiens) data, pIC50 value: > 7.00

GET /values?item= COc1ccc(NC(=O)c2cccc3c2OC[C@H](CO)N3c2ccc(C)cn2)cc1C(F)(F)F [Example 4-28] &system= human VR1 (Homo sapiens) returns pIC50: > 7.00

So the reported pIC50 for CC(C)(C)c1ccc(NC(=O)c2cccc3c2OCCN3c2ccc(C(=O)O)cn2)cc1 [Example 1-133] , on human VR1 (Homo sapiens), turned out to be 6.00 to 7.00

Simply: O=C(Nc1ccc(Cl)cc1)c1cccc2c1OCCN2c1ccc(Cl)cn1 [Example 1-121] , human VR1 (Homo sapiens), pIC50 = > 7.00

Entry O=C(Nc1ccc(OC(F)(F)F)c(Cl)c1)c1cccc2c1OC[C@H](CO)N2c1ncccc1Cl [Example 4-11] , human VR1 (Homo sapiens) data, pIC50 value: > 7.00

Per the reported human VR1 (Homo sapiens) data, CNC(=O)[C@H]1COc2c(C(=O)Nc3ccc(C(F)(F)F)cc3)cccc2N1c1ncccc1Cl [Example 1-234] has pIC50 of > 7.00

Sample COCc1cnc(N2CCOc3c(C(=O)Nc4ccc(OC(F)(F)F)cc4)cccc32)c(Cl)c1 [Example 1-220] , system: human VR1 (Homo sapiens). Its pIC50 is > 7.00

Test item COCCN(c1ccc(NC(=O)c2cccc3c2OCCN3c2ccc(C)cn2)cc1F)C(C)C [Example 1-164] ; human VR1 (Homo sapiens); reported pIC50 was > 7.00

Tested on human VR1 (Homo sapiens): COc1ccc(N2c3cccc(C(=O)Nc4ccc(C(F)(F)F)cc4)c3OC[C@@H]2CO)cc1 [Example 7-09] . Observed pIC50: > 7.00

Record CC(C)Oc1ccc(NC(=O)c2cccc3c2OCCN3c2ncccc2Cl)c(F)c1 [Example 1-052] ; system human VR1 (Homo sapiens); pIC50 = > 7.00

Record for Cc1nc(N2c3cccc(C(=O)Nc4ccc(C(F)(F)F)cc4)c3OC[C@@H]2CO)sc1C [Example 6-14] under target or system human VR1 (Homo sapiens): pIC50 reported as > 7.00

// pIC50 (human VR1 (Homo sapiens)) for O=C(Nc1cnc(Cl)c(Cl)c1)c1cccc2c1OCCN2c1ncc(CO)cc1Cl [Example 2-20] = > 7.00

The recorded pIC50 with human VR1 (Homo sapiens) for Cc1cnc(N2c3cccc(C(=O)Nc4ccc(OC(C)(C)C)c(F)c4)c3OC[C@@H]2CO)s1 [Example 6-5] was > 7.00

# O=C(Nc1ccc(OC(F)(F)F)cc1)c1cccc2c1OC[C@@H](CO)N2c1ncccc1Cl [Example 4-01] with human VR1 (Homo sapiens): pIC50 is 6.00 to 7.00

Reading of pIC50 for Cc1ccc(N2CCOc3c(C(=O)NCCc4ccc(Cl)cc4)cccc32)nc1 [Example 1-125] with human VR1 (Homo sapiens): > 7.00

Form field pIC50 for item COC1CCN(c2ccc(NC(=O)c3cccc4c3OCCN4c3ccc(C)cn3)cc2F)CC1 [Example 1-169] on human VR1 (Homo sapiens): > 7.00

Recorded pIC50 for Cc1ccc(N2c3cccc(C(=O)Nc4ccc(Br)c(F)c4)c3OC[C@@H]2CO)nc1 [Example 4-51] on human VR1 (Homo sapiens) was > 7.00

COc1cc(NC(=O)c2cccc3c2OCCN3c2ccc(C)cn2)ccc1Cl [Example 1-083] on human VR1 (Homo sapiens) gives pIC50 = > 7.00

Reported pIC50 (human VR1 (Homo sapiens)) for entry CC(C)(C)c1ccc(NC(=O)c2cccc3c2OCCN3c2cnccn2)cc1 [Example 5-1] is 6.00 to 7.00

Field pIC50 (system: human VR1 (Homo sapiens)) for entry Cc1ccc(N2CCOc3c(C(=O)NCCc4ccccc4)cccc32)nc1 [Example 1-124] = > 7.00

Given the molecule Cc1cnc(N2c3cccc(C(=O)Nc4ccc(C(F)(F)F)cc4)c3OC[C@@H]2CO)s1 [Example 6-2] and test system human VR1 (Homo sapiens), the measured pIC50 is > 7.00

Item: Cc1ccc(N2CCOc3c(C(=O)Nc4ccc(C)c(F)c4)cccc32)nc1 [Example 1-092] | System: human VR1 (Homo sapiens) | pIC50: > 7.00

COc1ccc(N2CCOc3c(C(=O)Nc4ccc(Cl)cc4)cccc32)cc1 [Example 7-03] tested on human VR1 (Homo sapiens) gave pIC50: > 7.00

// molecule COC(=O)c1ccc(NC(=O)c2cccc3c2OCCN3c2ncccc2Cl)cc1 [Example 1-034] , assay human VR1 (Homo sapiens), pIC50 value: > 7.00

Considering COC(=O)c1cc(NC(=O)c2cccc3c2OCCN3c2ccc(C)cn2)ccc1OCC(C)C [Example 1-073] , its pIC50 with human VR1 (Homo sapiens) was recorded as > 7.00

// pIC50 (human VR1 (Homo sapiens)) for CC(=O)c1ccc(NC(=O)c2cccc3c2OCCN3c2ccc(C)cn2)cc1 [Example 1-078] = > 7.00

Cc1ccc(N2CCOc3c(C(=O)Nc4ccc(N5CCC(O)CC5)c(F)c4)cccc32)nc1 [Example 1-171] on human VR1 (Homo sapiens) gives pIC50 = 6.00 to 7.00

Form field pIC50 for item NC(=O)[C@H]1COc2c(C(=O)Nc3ccc(C(F)(F)F)cc3)cccc2N1c1ncccc1Cl [Example 1-233] on human VR1 (Homo sapiens): > 7.00

The observed pIC50 for Cc1ccc(N2CCOc3c(C(=O)Nc4ccc(OC5CCN(C(=O)OC(C)(C)C)CC5)c(F)c4)cccc32)nc1 [Example 1-174] when tested with human VR1 (Homo sapiens) stands at > 7.00

###

Hi there, I'd appreciate the recorded pIC50 for every entry that follows.
biological target: human VR1 (Homo sapiens, UniProt Q8NER1); assay: Inhibition of Ca2+ entry in cells caused by proton, in rat glioma (C6BU1) cells stably expressing human VR1 (Fura 2 fluorescence); details: inhibition of proton-induced Ca2+ entry
Sequence (Q8NER1 whole entry): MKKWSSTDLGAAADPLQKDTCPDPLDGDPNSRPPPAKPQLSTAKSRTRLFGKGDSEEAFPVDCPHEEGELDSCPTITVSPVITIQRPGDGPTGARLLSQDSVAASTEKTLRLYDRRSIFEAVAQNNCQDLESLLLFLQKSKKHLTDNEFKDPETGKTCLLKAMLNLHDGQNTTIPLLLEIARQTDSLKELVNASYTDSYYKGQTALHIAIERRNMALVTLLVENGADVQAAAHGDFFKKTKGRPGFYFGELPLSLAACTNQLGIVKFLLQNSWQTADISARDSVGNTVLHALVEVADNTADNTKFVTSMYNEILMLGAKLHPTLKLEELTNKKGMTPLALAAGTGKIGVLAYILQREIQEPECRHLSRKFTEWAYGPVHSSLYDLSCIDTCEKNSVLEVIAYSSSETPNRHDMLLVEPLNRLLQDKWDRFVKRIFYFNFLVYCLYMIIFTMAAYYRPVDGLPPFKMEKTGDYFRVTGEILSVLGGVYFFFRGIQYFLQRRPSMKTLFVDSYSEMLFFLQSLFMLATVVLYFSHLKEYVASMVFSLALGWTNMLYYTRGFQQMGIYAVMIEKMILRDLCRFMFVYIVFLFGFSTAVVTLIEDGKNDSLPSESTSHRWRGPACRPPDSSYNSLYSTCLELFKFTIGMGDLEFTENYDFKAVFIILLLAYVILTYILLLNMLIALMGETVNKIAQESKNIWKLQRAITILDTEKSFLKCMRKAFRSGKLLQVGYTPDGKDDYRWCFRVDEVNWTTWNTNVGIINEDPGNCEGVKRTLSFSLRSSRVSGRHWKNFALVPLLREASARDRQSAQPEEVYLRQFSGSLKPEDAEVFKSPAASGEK
pIC50: −log10 of the molar value.

O=C(Nc1ccc(OC(F)(F)F)cc1)c1cccc2c1OC[C@H](CO)N2c1ccc(Cl)cc1 [Example 7-07] yielded pIC50 of > 7.00

Measured pIC50 of Cc1ccc(N2CCOc3c(C(=O)Nc4ccc(N(CCO)C(C)C)c(F)c4)cccc32)nc1 [Example 1-166] : 6.00 to 7.00

Value of measured pIC50 for the entry O=C(Nc1ccc(F)c([N+](=O)[O-])c1)c1cccc2c1OCCN2c1ncc(CO)cc1Cl [Example 2-26] : 6.00 to 7.00

Lab note: measured pIC50 of Cc1cnc(N2c3cccc(C(=O)Nc4ccc(OC(F)(F)F)cc4)c3OC[C@@H]2CO)s1 [Example 6-1] was > 7.00

Measured pIC50, Cc1cnc(N2CCOc3c(C(=O)Nc4ccc(OC(F)(F)F)cc4)cccc32)s1 [Example 5-6] : > 7.00

Measured pIC50, COc1cccnc1N1CCOc2c(C(=O)Nc3ccc(C(C)(C)C)cc3)cccc21 [Example 1-151] : > 7.00

The reported pIC50 of the compound COCC1CCN(c2ccc(NC(=O)c3cccc4c3OCCN4c3ccc(C)cn3)cc2F)CC1 [Example 1-071] was > 7.00

Form field pIC50, entry CNc1ccc(N2CCOc3c(C(=O)Nc4ccc(OC(F)(F)F)cc4)cccc32)nc1 [Example 1-197] : > 7.00

GET /value?item= O=C(Nc1ccc(C(F)(F)F)cc1)c1cccc2c1OCCN2c1ccc(O)cn1 [Example 1-146] &field=pIC50 returns > 7.00

Entry CC(C)Oc1ccc(NC(=O)c2cccc3c2OCCN3c2ncc(CO)cc2Cl)cc1C(F)(F)F [Example 2-19] , pIC50 reported as > 7.00

pIC50 reported for this compound Cc1cccc(N2CCOc3c(C(=O)Nc4ccc(C(C)(C)C)cc4)cccc32)n1 [Example 1-059] : 6.00 to 7.00

Sample CC(C)(C)[C@H]1CC[C@H](NC(=O)c2cccc3c2OC[C@H](CO)N3c2ncccc2Cl)CC1 [Example 4-14] ; pIC50 observed: > 7.00

###

Consider the following molecules; for each one, report its pIC50.
target: human VR1 (Homo sapiens); construct: expressed in transfected cells; test: Inhibition of Ca2+ entry in cells caused by proton, in rat glioma (C6BU1) cells stably expressing human VR1 (Fura 2 fluorescence); type: cell-based; details: inhibition of proton-induced Ca2+ entry
pIC50: −log10 of the molar value.

pIC50 reported for this molecule CNC(=O)c1cc(NC(=O)c2cccc3c2OCCN3c2ccc(C)cn2)ccc1OCC(C)C [Example 1-076] : 6.00 to 7.00

Recorded pIC50 (molecule O=C(Nc1ccc(C(F)(F)F)cc1)c1cccc2c1OCCN2c1ccc(F)cn1 [Example 1-149] ): > 7.00

GET /value?item= CC(O)c1cnc(N2CCOc3c(C(=O)Nc4ccc(C(F)(F)F)cc4)cccc32)c(Cl)c1 (stereo not drawn) [Example 1-130] &field=pIC50 returns > 7.00

The recorded pIC50 for entry O=C(Nc1ccc(OC(F)(F)F)cc1)c1cccc2c1OCC(CO)N2c1ncccc1Cl (stereo not drawn) [Example 4-52] equals > 7.00

Lookup result for O=C(Nc1ccc(OC(F)(F)F)cc1)c1cccc2c1OCCN2c1ncccc1CO [Example 2-11] ; measured pIC50: 6.00 to 7.00

# pIC50 (molecule: CC(C)(O)c1cnc(N2CCOc3c(C(=O)Nc4ccc(C(F)(F)F)cc4)cccc32)c(Cl)c1 [Example 1-129] ) is > 7.00

Data credit: patent US8008292B2
